System: NCI-H1623
protocolText: relative viability (nuclei count vs DMSO), 5 days (fraction); higher = more cells survive
conditionParameters: first compound 0.2 µM
Some compounds, each annotated with its measured relative viability.
Just the number, please, no unit after it.

Here are 3 compounds together with their reported answers.
compound="CCNC(=O)c1noc(-c2cc(C(C)C)c(O)cc2O)c1-c1ccc(CN2CCOCC2)cc1 [Luminespib] + COc1cc2c(Oc3ccc(NC(=O)C4(C(=O)Nc5ccc(F)cc5)CC4)cc3F)ccnc2cc1OCCCN1CCOCC1 [Foretinib] (partner 0.25 µM)" quantity="relative viability" reported=0.375
compound="Cc1csc(=NC2CCCCC2)n1/N=C/c1ccc(O)c(O)c1O [MIM1] + CCNC(=O)c1noc(-c2cc(C(C)C)c(O)cc2O)c1-c1ccc(CN2CCOCC2)cc1 [Luminespib] (partner 0.01 µM)" quantity="relative viability" reported=0.522
compound="CN1CCN(CCOc2cc(OC3CCOCC3)c3c(Nc4c(Cl)ccc5c4OCO5)ncnc3c2)CC1 [Saracatinib] + COc1cccc2cc(-c3nc([C@H]4CC[C@H](C(=O)O)CC4)n4ncnc(N)c34)[nH]c12 [OSI-027] (partner 0.5 µM)" quantity="relative viability" reported=0.388

Here's the next entry for you.
Prompt line: What measured relative viability is associated with CN1CCN(CCOc2cc(OC3CCOCC3)c3c(Nc4c(Cl)ccc5c4OCO5)ncnc3c2)CC1 [Saracatinib] + CCNC(=O)c1noc(-c2cc(C(C)C)c(O)cc2O)c1-c1ccc(CN2CCOCC2)cc1 [Luminespib] (partner 0.01 µM) on NCI-H1623?
Response line: 0.383

---

Test system: IA-LM
protocolText: relative viability (nuclei count vs DMSO), 5 days (fraction); higher = more cells survive
conditionParameters: first compound 0.002 µM
Some compounds, each annotated with its measured relative viability.
Just the number, please, no unit after it.

compound="CCNC(=O)c1noc(-c2cc(C(C)C)c(O)cc2O)c1-c1ccc(CN2CCOCC2)cc1 [Luminespib] + C[C@@H](Oc1cc(-c2cnn(C3CCNCC3)c2)cnc1N)c1c(Cl)ccc(F)c1Cl [Crizotinib] (partner 1 µM)" quantity="relative viability" reported=0.753
compound="CCNC(=O)c1noc(-c2cc(C(C)C)c(O)cc2O)c1-c1ccc(CN2CCOCC2)cc1 [Luminespib] + O=C(CCCCCCC(=O)Nc1ccccc1)NO [Vorinostat] (partner 1 µM)" quantity="relative viability" reported=0.918
compound="CCNC(=O)c1noc(-c2cc(C(C)C)c(O)cc2O)c1-c1ccc(CN2CCOCC2)cc1 [Luminespib] + CC(C)C[C@H](NC(=O)[C@H](Cc1ccccc1)NC(=O)c1cnccn1)B(O)O [Bortezomib] (partner 0.002 µM)" quantity="relative viability" reported=0.819

Here's the next entry for you.
Prompt line: Which relative viability is listed for CCNC(=O)c1noc(-c2cc(C(C)C)c(O)cc2O)c1-c1ccc(CN2CCOCC2)cc1 [Luminespib] + CC1(C)CCC(c2ccc(Cl)cc2)=C(CN2CCN(c3ccc(C(=O)NS(=O)(=O)c4ccc(N[C@H](CCN5CCOCC5)CSc5ccccc5)c(S(=O)(=O)C(F)(F)F)c4)cc3)CC2)C1 [Navitoclax] (partner 0.5 µM) ?
Response line: 0.752

---

Tested on: LC-2-ad
protocolText: relative viability (nuclei count vs DMSO), 5 days (fraction); higher = more cells survive
conditionParameters: first compound 0.006325 µM
Criterion: relative viability strictly under 0.8. Met: Satisfied. Not met: Not satisfied.

Consider the following illustrative entries.
compound="CCNC(=O)c1noc(-c2cc(C(C)C)c(O)cc2O)c1-c1ccc(CN2CCOCC2)cc1 [Luminespib] + CC1(C)CCC(c2ccc(Cl)cc2)=C(CN2CCN(c3ccc(C(=O)NS(=O)(=O)c4ccc(N[C@H](CCN5CCOCC5)CSc5ccccc5)c(S(=O)(=O)C(F)(F)F)c4)cc3)CC2)C1 [Navitoclax] (partner 0.5 µM)" systemtested=LC-2-ad cat=Satisfied
compound="CCNC(=O)c1noc(-c2cc(C(C)C)c(O)cc2O)c1-c1ccc(CN2CCOCC2)cc1 [Luminespib] + CS(=O)(=O)CCNCc1ccc(-c2ccc3ncnc(Nc4ccc(OCc5cccc(F)c5)c(Cl)c4)c3c2)o1 [Lapatinib] (partner 2 µM)" systemtested=LC-2-ad cat="Not satisfied"
compound="CCNC(=O)c1noc(-c2cc(C(C)C)c(O)cc2O)c1-c1ccc(CN2CCOCC2)cc1 [Luminespib] + NC(=O)Nc1cc(-c2cccc(F)c2)sc1C(=O)N[C@H]1CCCNC1 [AZD7762] (partner 0.2 µM)" systemtested=LC-2-ad cat="Not satisfied"

Could you now consider this next compound?
Prompt line: Say whether its relative viability is strictly beneath 0.8. Entry: CCNC(=O)c1noc(-c2cc(C(C)C)c(O)cc2O)c1-c1ccc(CN2CCOCC2)cc1 [Luminespib] + CC(=O)c1c(C)c2cnc(Nc3ccc(N4CCNCC4)cn3)nc2n(C2CCCC2)c1=O [Palbociclib] (partner 0.5 µM)
Response line: Satisfied

---

Test system: SK-LU-1
protocolText: relative viability (nuclei count vs DMSO), 5 days (fraction); higher = more cells survive
conditionParameters: first compound 0.253 µM
quantity: relative viability
Just the number, please, no unit after it.

molecule="Nc1cccc2c1CN(C1CCC(=O)NC1=O)C2=O (centres undefined) [Lenalidomide] + Cc1nc(Nc2ncc(C(=O)Nc3c(C)cccc3Cl)s2)cc(N2CCN(CCO)CC2)n1 [Dasatinib] (partner 0.075 µM)" quantity="relative viability" reported=0.175
molecule="Nc1cccc2c1CN(C1CCC(=O)NC1=O)C2=O (centres undefined) [Lenalidomide] + COc1cc2c(Oc3ccc(NC(=O)C4(C(=O)Nc5ccc(F)cc5)CC4)cc3F)ccnc2cc1OCCCN1CCOCC1 [Foretinib] (partner 0.25 µM)" quantity="relative viability" reported=0.71
molecule="Nc1cccc2c1CN(C1CCC(=O)NC1=O)C2=O (centres undefined) [Lenalidomide] + C[C@@H](Oc1cc(-c2cnn(C3CCNCC3)c2)cnc1N)c1c(Cl)ccc(F)c1Cl [Crizotinib] (partner 1 µM)" quantity="relative viability" reported=1.05

Here's the next entry for you.
Prompt line: Which relative viability is listed for Nc1cccc2c1CN(C1CCC(=O)NC1=O)C2=O (centres undefined) [Lenalidomide] + Cc1cc(Nc2cc(N3CCN(C)CC3)nc(Sc3ccc(NC(=O)C4CC4)cc3)n2)n[nH]1 [Tozasertib] (partner 0.1 µM) ?
Response line: 0.376

---

Test system: LCLC-103H
protocolText: relative viability (nuclei count vs DMSO), 5 days (fraction); higher = more cells survive
conditionParameters: first compound 0.2 µM
Criterion: relative viability strictly under 0.7. Met: 1. Not met: 0.

molecule="Cc1csc(=NC2CCCCC2)n1/N=C/c1ccc(O)c(O)c1O [MIM1] + CC(=O)Nc1cccc(-n2c(=O)n(C3CC3)c(=O)c3c(Nc4ccc(I)cc4F)n(C)c(=O)c(C)c32)c1 [Trametinib] (partner 0.02 µM)" systemtested=LCLC-103H cat=1
molecule="Cc1csc(=NC2CCCCC2)n1/N=C/c1ccc(O)c(O)c1O [MIM1] + CS(=O)(=O)N1CCN(Cc2cc3nc(-c4cccc5[nH]ncc45)nc(N4CCOCC4)c3s2)CC1 [Pictilisib] (partner 1 µM)" systemtested=LCLC-103H cat=0
molecule="Cc1csc(=NC2CCCCC2)n1/N=C/c1ccc(O)c(O)c1O [MIM1] + Nc1nc2[nH]cc(CCc3ccc(C(=O)N[C@@H](CCC(=O)O)C(=O)O)cc3)c2c(=O)[nH]1 [Pemetrexed] (partner 0.2 µM)" systemtested=LCLC-103H cat=1

Prompt line: Say whether its relative viability is strictly beneath 0.7. Entry: Cc1csc(=NC2CCCCC2)n1/N=C/c1ccc(O)c(O)c1O [MIM1] + Nc1ncn([C@H]2C[C@H](O)[C@@H](CO)O2)c(=O)n1 [Decitabine] (partner 2 µM)
Response line: 0

Prompt line: Now the same for Cc1csc(=NC2CCCCC2)n1/N=C/c1ccc(O)c(O)c1O [MIM1] + O=C(c1cc(Cc2n[nH]c(=O)c3ccccc23)ccc1F)N1CCN(C(=O)C2CC2)CC1 [Olaparib] (partner 8 µM)
Response line: 0

Prompt line: Now the same for Cc1csc(=NC2CCCCC2)n1/N=C/c1ccc(O)c(O)c1O [MIM1] + Cc1nc(Nc2ncc(C(=O)Nc3c(C)cccc3Cl)s2)cc(N2CCN(CCO)CC2)n1 [Dasatinib] (partner 0.075 µM)
Response line: 1

Prompt line: Now the same for Cc1csc(=NC2CCCCC2)n1/N=C/c1ccc(O)c(O)c1O [MIM1] + COc1cccc2cc(-c3nc([C@H]4CC[C@H](C(=O)O)CC4)n4ncnc(N)c34)[nH]c12 [OSI-027] (partner 0.5 µM)
Response line: 1

Prompt line: Now the same for Cc1csc(=NC2CCCCC2)n1/N=C/c1ccc(O)c(O)c1O [MIM1] + N=C(N)NC(=N)NCCc1ccccc1 [Phenformin] (partner 250 µM)
Response line: 1

---

Tested on: HCC-366
protocolText: relative viability (nuclei count vs DMSO), 5 days (fraction); higher = more cells survive
conditionParameters: first compound 0.03162 µM
quantity: relative viability
Just the number, please, no unit after it.

Here are 2 compounds together with their reported answers.
compound="Cc1cn(-c2cc(NC(=O)c3ccc(C)c(Nc4nccc(-c5cccnc5)n4)c3)cc(C(F)(F)F)c2)cn1 [Nilotinib] + C[C@@H](Oc1cc(-c2cnn(C3CCNCC3)c2)cnc1N)c1c(Cl)ccc(F)c1Cl [Crizotinib] (partner 1 µM)" quantity="relative viability" reported=0.389
compound="Cc1cn(-c2cc(NC(=O)c3ccc(C)c(Nc4nccc(-c5cccnc5)n4)c3)cc(C(F)(F)F)c2)cn1 [Nilotinib] + Nc1ncn([C@H]2C[C@H](O)[C@@H](CO)O2)c(=O)n1 [Decitabine] (partner 2 µM)" quantity="relative viability" reported=0.445

Prompt line: Which relative viability is listed for Cc1cn(-c2cc(NC(=O)c3ccc(C)c(Nc4nccc(-c5cccnc5)n4)c3)cc(C(F)(F)F)c2)cn1 [Nilotinib] + N=C(N)NC(=N)NCCc1ccccc1 [Phenformin] (partner 250 µM) ?
Response line: 0.257

Prompt line: Now the same for Cc1cn(-c2cc(NC(=O)c3ccc(C)c(Nc4nccc(-c5cccnc5)n4)c3)cc(C(F)(F)F)c2)cn1 [Nilotinib] + Cc1nc(NC(=O)N2CCC[C@H]2C(N)=O)sc1-c1ccnc(C(C)(C)C(F)(F)F)c1 [Alpelisib] (partner 2 µM)
Response line: 0.248

Prompt line: Now the same for Cc1cn(-c2cc(NC(=O)c3ccc(C)c(Nc4nccc(-c5cccnc5)n4)c3)cc(C(F)(F)F)c2)cn1 [Nilotinib] + CC(=O)c1c(C)c2cnc(Nc3ccc(N4CCNCC4)cn3)nc2n(C2CCCC2)c1=O [Palbociclib] (partner 0.5 µM)
Response line: 0.36

Cited source: the supplement of paper PMC10307832
